Measured pEC50, listed per entry.
SYSTEM TESTED: Gastrin/cholecystokinin type B receptor (Homo sapiens, UniProt P32239)
Sequence (P32239 whole entry): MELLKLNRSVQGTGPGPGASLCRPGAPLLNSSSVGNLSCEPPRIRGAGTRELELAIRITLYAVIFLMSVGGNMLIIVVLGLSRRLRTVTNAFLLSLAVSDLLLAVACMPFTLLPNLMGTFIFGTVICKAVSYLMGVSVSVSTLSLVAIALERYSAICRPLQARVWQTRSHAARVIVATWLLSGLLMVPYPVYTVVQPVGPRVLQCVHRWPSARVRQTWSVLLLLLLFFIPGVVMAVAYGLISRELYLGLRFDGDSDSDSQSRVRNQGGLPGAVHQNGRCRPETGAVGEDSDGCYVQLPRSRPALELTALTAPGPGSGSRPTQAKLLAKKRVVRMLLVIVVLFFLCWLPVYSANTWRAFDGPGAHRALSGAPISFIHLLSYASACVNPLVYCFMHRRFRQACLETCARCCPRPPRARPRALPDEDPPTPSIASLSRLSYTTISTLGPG
TEST DETAILS: Agonist activity at human CCK2R expressed in human 1321N1 cells assessed as IP1 accumulation after 1 hr by HTRF assay
Numbered stars: 1 amine (or outer) side, 2 acyl side, 3 side chain; on linkers, the order of the positions; unused ones are H or OH. Square brackets hold non-standard residues; d marks the D form. Peptide text beside a SMILES is read from it. * marks the point of attachment. sY = N[C@@H](Cc1ccc(OS(=O)(=O)O)cc1)C(=O)O; C18 diacid = O=C(O)CCCCCCCCCCCCCCCCC(=O)*; γGlu = O=C(O)[C@H](CCC(=O)[*:2])N[*:1]; Hyp = O=C(O)[C@@H]1C[C@@H](O)CN1; Nle = CCCC[C@H](N)C(=O)O; AEEA = NCCOCCOCC(=O)O; βAla = NCCC(=O)O
API: returns pEC50 as number; meaning -log10 of concentration in mol/L.

- COMPOUND: "CCCC[C@H](NC(=O)[C@H](Cc1ccc(OS(=O)(=O)O)cc1)NC(=O)[C@H](CC(=O)O)NC(=O)COCCOCCNC(=O)COCCOCCNC(=O)CC[C@H](NC(=O)CCCCCCCCCCCCCCCCC(=O)O)C(=O)O)C(=O)NCC(=O)N[C@@H](Cc1c[nH]c2ccccc12)C(=O)N[C@@H](CCCC)C(=O)N1C[C@H](O)C[C@H]1C(=O)N[C@@H](Cc1ccccc1)C(N)=O ({C18 diacid-γGlu-AEEA-AEEA}-D[sY][Nle]GW[Nle][Hyp]F-NH2)"
  SYSTEM TESTED: "Gastrin/cholecystokinin type B receptor (Homo sapiens, UniProt P32239)"
  pEC50: 7.59

Next:
Lookup: Can you share its pEC50? I mean this compound: CCCC[C@H](NC(=O)[C@H](Cc1c[nH]c2ccccc12)NC(=O)CCNC(=O)[C@H](CC(C)C)NC(=O)[C@H](Cc1ccc(OS(=O)(=O)O)cc1)NC(=O)[C@H](CC(=O)O)NC(=O)COCCOCCNC(=O)COCCOCCNC(=O)CC[C@H](NC(=O)CCCCCCCCCCCCCCCCC(=O)O)C(=O)O)C(=O)N[C@@H](CC(=O)O)C(=O)N[C@@H](Cc1ccccc1)C(N)=O ({C18 diacid-γGlu-AEEA-AEEA}-D[sY]L[βAla]W[Nle]DF-NH2)
Found: 9.50
